Test system: pancreatic cancer cell line (BXPC3)
ASSAY_METHOD_TEXT: tumor cell proliferation inhibition (CTG), pancreatic cancer cell line
Format: cell-based
TEST_CONDITIONS: Homo sapiens, BXPC-3, 72 hours
pIC50: −log10 of the molar value.
MEASURED_ATTRIBUTE: pIC50

# COMPOUND, TARGET_OR_TEST_SYSTEM, VALUE
measured = [
    ("COc1cc2nccc(Oc3c(F)cc(NC(=O)NC4CC4)c(Cl)c3F)c2cc1C(=O)N[C@H](C)CO", "pancreatic cancer cell line (BXPC3)", "< 5.00"),
    ("COc1cc2nccc(Oc3c(F)cc(NC(=O)NC4CC4)c(F)c3F)c2cc1C(=O)NCCO", "pancreatic cancer cell line (BXPC3)", "< 5.00"),
    ("COc1cc2nccc(Oc3c(F)cc(NC(=O)NC4CC4)c(F)c3F)c2cc1C(=O)NCC(F)F", "pancreatic cancer cell line (BXPC3)", "< 5.00"),
    ("COc1cc2nccc(Oc3c(F)cc(NC(=O)NC4CC4)c(Cl)c3F)c2cc1C(=O)NC1CCN(C)CC1", "pancreatic cancer cell line (BXPC3)", "< 5.00"),
    ("COc1cc2nccc(Oc3c(F)cc(NC(=O)NC4CC4)c(Cl)c3F)c2cc1C(=O)NC1CC1", "pancreatic cancer cell line (BXPC3)", "< 5.00"),
    ("COc1cc2nccc(Oc3c(F)cc(NC(=O)NC4CC4)c(Cl)c3F)c2cc1C(=O)N(C1CC1)C1CC1", "pancreatic cancer cell line (BXPC3)", "< 5.00"),
    ("COc1cc2nccc(Oc3c(F)cc(NC(=O)NC4CC4)c(Cl)c3F)c2cc1C(=O)Nc1cn[nH]c1", "pancreatic cancer cell line (BXPC3)", "< 5.00"),
    ("COc1cc2nccc(Oc3ccc(NC(=O)NC4CC4)c(Cl)c3)c2cc1C(N)=O [Lenvatinib, lenvatinib, reference compound]", "pancreatic cancer cell line (BXPC3)", "< 5.00"),
]

====

Collected IC50 values appear next to each entry.
System: pancreatic cancer cell line (BXPC3)
ASSAY_METHOD_TEXT: tumor cell proliferation inhibition (CTG), pancreatic cancer cell line
Type: cell-based
TEST_CONDITIONS: Homo sapiens, BXPC-3, 72 hours

# COMPOUND, IC50
data = [
    ("COc1cc2nccc(Oc3c(F)cc(NC(=O)NC4CC4)c(Cl)c3F)c2cc1C(=O)NC1(C#N)CC1", "> 10 µM"),
    ("COc1cc2nccc(Oc3c(F)cc(NC(=O)NC4CC4)c(Cl)c3F)c2cc1C(=O)NC[C@H](O)CO", "> 10 µM"),
    ("COc1cc2nccc(Oc3c(F)cc(NC(=O)NC4CC4)c(Cl)c3F)c2cc1C(=O)NC(C)C#N (centres unmarked)", "> 10 µM"),
    ("COc1cc2nccc(Oc3c(F)cc(NC(=O)NC4CC4)c(F)c3F)c2cc1C(=O)NC1CC1", "< 5 µM"),
    ("COc1cc2nccc(Oc3c(F)cc(NC(=O)NC4CC4)c(Cl)c3F)c2cc1C(=O)NCC#N", "< 5 µM"),
    ("COc1cc2nccc(Oc3c(F)cc(NC(=O)NC4CC4)c(Cl)c3F)c2cc1C(=O)N1CCN(C)CC1", "> 10 µM"),
    ("COc1cc2nccc(Oc3c(F)cc(NC(=O)NC4CC4)c(Cl)c3F)c2cc1C(=O)NC1(CO)CC1", "> 10 µM"),
    ("COc1cc2nccc(Oc3c(F)cc(NC(=O)NC4CC4)c(Cl)c3F)c2cc1C(=O)NC[C@@H](O)CO", "5 to 10 µM"),
]

Data origin, for the record: patent US11912663B2
